# System: Streptococcus pneumoniae
# TEST DESCRIPTION: In vitro antibacterial activity of 5979 strain of Gram positive bacteria Streptococcus pneumoniae
# Format: functional
MEASUREMENT LABEL: MIC

For orientation, consider the following solved cases.
MOLECULE	MIC
CC[C@H]1OC(=O)/C(C)=C/[C@H](C)[C@@H](O[C@@H]2O[C@H](C)C[C@H](N(C)C)[C@H]2O)[C@@](C)(OC)C[C@@H](C)C(=O)[C@H](C)[C@H]2N(NCc3cc(O)ccc3O)C(=O)O[C@]12C	128 µg/mL
CC[C@H]1OC(=O)/C(C)=C/[C@H](C)[C@@H](O[C@@H]2O[C@H](C)C[C@H](N(C)C)[C@H]2O)[C@@](C)(OC)C[C@@H](C)C2=NN3C(=O)O[C@@]1(C)[C@H]3[C@H]2C	> 128 µg/mL

Which measured MIC value corresponds to CC[C@H]1OC(=O)/C(C)=C/[C@H](C)[C@@H](O[C@@H]2O[C@H](C)C[C@H](N(C)C)[C@H]2O)[C@@](C)(OC)C[C@@H](C)C(=O)[C@H](C)[C@H]2N(N)C(=O)O[C@]12C ?
> 64 µg/mL

Which measured MIC value corresponds to CC[C@H]1OC(=O)[C@H](C)[C@@H](O[C@H]2C[C@@](C)(OC)[C@@H](O)[C@H](C)O2)[C@H](C)[C@@H](O[C@@H]2O[C@H](C)C[C@H](N(C)C)[C@H]2O)[C@](C)(O)C[C@@H](C)C(=O)[C@H](C)[C@@H](O)[C@]1(C)O [ERYTHROMYCIN] ?
> 128 µg/mL

###

# Test system: Streptococcus pneumoniae
# TEST DESCRIPTION: In vitro antibacterial activity of 5979 strain of Gram positive bacteria Streptococcus pneumoniae
# Format: functional
MEASUREMENT LABEL: MIC

LINE NOTATION	MIC
CC[C@H]1OC(=O)/C(C)=C/[C@H](C)[C@@H](O[C@@H]2O[C@H](C)C[C@H](N(C)C)[C@H]2O)[C@@](C)(OC)C[C@@H](C)C(=O)[C@H](C)[C@H]2N(NCc3ccc(C#N)cc3)C(=O)O[C@]12C	> 128 µg/mL

Which measured MIC value corresponds to CC[C@H]1OC(=O)/C(C)=C/[C@H](C)[C@@H](O[C@@H]2O[C@H](C)C[C@H](N(C)C)[C@H]2O)[C@@](C)(OC)C[C@@H](C)C(=O)[C@H](C)[C@H]2N(NCc3ccc(C(F)(F)F)cc3)C(=O)O[C@]12C ?
16 µg/mL

Which measured MIC value corresponds to CC[C@H]1OC(=O)/C(C)=C/[C@H](C)[C@@H](O[C@@H]2O[C@H](C)C[C@H](N(C)C)[C@H]2O)[C@@](C)(OC)C[C@@H](C)C(=O)[C@H](C)[C@H]2N(NC/C=C/c3ccccc3)C(=O)O[C@]12C ?
32 µg/mL

Which measured MIC value corresponds to CC[C@H]1OC(=O)/C(C)=C/[C@H](C)[C@@H](O[C@@H]2O[C@H](C)C[C@H](N(C)C)[C@H]2O)[C@@](C)(OC)C[C@@H](C)C(=O)[C@H](C)[C@H]2N(NCCCc3ccc(N)cc3)C(=O)O[C@]12C ?
> 128 µg/mL

Which measured MIC value corresponds to CC[C@H]1OC(=O)/C(C)=C/[C@H](C)[C@@H](O[C@@H]2O[C@H](C)C[C@H](N(C)C)[C@H]2O)[C@@](C)(OC)C[C@@H](C)C(=O)[C@@H](C)[C@H]2N(N)C(=O)O[C@]12C ?
> 128 µg/mL

Which measured MIC value corresponds to CC[C@H]1OC(=O)/C(C)=C/[C@H](C)[C@@H](O[C@@H]2O[C@H](C)C[C@H](N(C)C)[C@H]2O)[C@@](C)(OC)C[C@@H](C)C(=O)[C@H](C)[C@H]2N(NCCCc3ccccc3O)C(=O)O[C@]12C ?
> 128 µg/mL

Which measured MIC value corresponds to CC[C@H]1OC(=O)/C(C)=C/[C@H](C)[C@@H](O[C@@H]2O[C@H](C)C[C@H](N(C)C)[C@H]2O)[C@@](C)(OC)C[C@@H](C)C(=O)[C@H](C)[C@H]2N(NCCCc3ccccc3)C(=O)O[C@]12C ?
64 µg/mL

Which measured MIC value corresponds to CC[C@H]1OC(=O)/C(C)=C/[C@H](C)[C@@H](O[C@@H]2O[C@H](C)C[C@H](N(C)C)[C@H]2O)[C@@](C)(OC)C[C@@H](C)C(=O)[C@H](C)[C@H]2N(NCc3c[nH]c4ccccc34)C(=O)O[C@]12C ?
> 64 µg/mL

Which measured MIC value corresponds to CC[C@H]1OC(=O)/C(C)=C/[C@H](C)[C@@H](O[C@@H]2O[C@H](C)C[C@H](N(C)C)[C@H]2O)[C@@](C)(OC)C[C@@H](C)C(=O)[C@H](C)[C@H]2N(NCc3c(O)ccc4ccccc34)C(=O)O[C@]12C ?
32 µg/mL

###

# Tested on: Streptococcus pyogenes
# TEST DESCRIPTION: In vitro antibacterial activity of 930 strain of Gram positive bacteria Streptococcus pyogenes
# Format: functional
MEASUREMENT LABEL: MIC (µg/mL)
Give the value in µg/mL but do not write µg/mL after it.

LINE NOTATION	MIC / µg/mL
CC[C@H]1OC(=O)/C(C)=C/[C@H](C)[C@@H](O[C@@H]2O[C@H](C)C[C@H](N(C)C)[C@H]2O)[C@@](C)(OC)C[C@@H](C)C(=O)[C@H](C)[C@H]2N(NCCCc3ccc([N+](=O)[O-])cc3)C(=O)O[C@]12C	64

Would you kindly look at the next entry?
Which measured MIC value corresponds to CC[C@H]1OC(=O)/C(C)=C/[C@H](C)[C@@H](O[C@@H]2O[C@H](C)C[C@H](N(C)C)[C@H]2O)[C@@](C)(OC)C[C@@H](C)C(=O)[C@H](C)[C@H]2N(NC/C=C/c3ccc([N+](=O)[O-])o3)C(=O)O[C@]12C ?
64

###

# Test system: Streptococcus pyogenes
# TEST DESCRIPTION: In vitro antibacterial activity of 930 strain of Gram positive bacteria Streptococcus pyogenes
# Format: functional
MEASUREMENT LABEL: MIC (µg/mL)
Give the value in µg/mL but do not write µg/mL after it.

For orientation, consider the following solved cases.
LINE NOTATION	MIC / µg/mL
CC[C@H]1OC(=O)/C(C)=C/[C@H](C)[C@@H](O[C@@H]2O[C@H](C)C[C@H](N(C)C)[C@H]2O)[C@@](C)(OC)C[C@@H](C)C(=O)[C@H](C)[C@H]2N(NCc3cc(O)ccc3O)C(=O)O[C@]12C	128
CC[C@H]1OC(=O)/C(C)=C/[C@H](C)[C@@H](O[C@@H]2O[C@H](C)C[C@H](N(C)C)[C@H]2O)[C@@](C)(OC)C[C@@H](C)C(=O)[C@H](C)[C@H]2N(NC/C=C/c3ccccc3)C(=O)O[C@]12C	32

Would you kindly look at the next entry?
Which measured MIC value corresponds to CC[C@H]1OC(=O)/C(C)=C/[C@H](C)[C@@H](O[C@@H]2O[C@H](C)C[C@H](N(C)C)[C@H]2O)[C@@](C)(OC)C[C@@H](C)C(=O)[C@H](C)[C@H]2N(NCCCc3ccccc3)C(=O)O[C@]12C ?
32

###

# Test system: Staphylococcus aureus
# TEST DESCRIPTION: In vitro antibacterial activity of A5177 strain of Gram positive bacteria Staphylococcus aureus
# Type: functional
Each entry below carries its reported MIC.
Give the value in mg/L but do not write mg/L after it.

LINE NOTATION	NUMERIC RESULT
CC[C@H]1OC(=O)/C(C)=C/[C@H](C)[C@@H](O[C@@H]2O[C@H](C)C[C@H](N(C)C)[C@H]2O)[C@@](C)(OC)C[C@@H](C)C(=O)[C@H](C)[C@H]2N(NC/C=C/c3ccc([N+](=O)[O-])o3)C(=O)O[C@]12C	0.01
CC[C@H]1OC(=O)/C(C)=C/[C@H](C)[C@@H](O[C@@H]2O[C@H](C)C[C@H](N(C)C)[C@H]2O)[C@@](C)(OC)C[C@@H](C)C(=O)[C@H](C)[C@H]2N(NCc3ccc(C#N)cc3)C(=O)O[C@]12C	0.02

Would you kindly look at the next entry?
Which measured MIC value corresponds to CC[C@H]1OC(=O)/C(C)=C/[C@H](C)[C@@H](O[C@@H]2O[C@H](C)C[C@H](N(C)C)[C@H]2O)[C@@](C)(OC)C[C@@H](C)C(=O)[C@H](C)[C@H]2N(NCc3ccc(C(F)(F)F)cc3)C(=O)O[C@]12C ?
0.78

###

# System: Streptococcus pneumoniae
# TEST DESCRIPTION: In vitro antibacterial activity of 5649 strain of Gram positive bacteria Streptococcus pneumoniae
# Type: functional
MEASUREMENT LABEL: MIC

For orientation, consider the following solved cases.
LINE NOTATION	SYSTEM UNDER TEST	RESULT
CC[C@H]1OC(=O)/C(C)=C/[C@H](C)[C@@H](O[C@@H]2O[C@H](C)C[C@H](N(C)C)[C@H]2O)[C@@](C)(OC)C[C@@H](C)C(=O)[C@H](C)[C@H]2N(NCCCc3cccc(O)c3)C(=O)O[C@]12C	Streptococcus pneumoniae	0.5 µg/mL
CC[C@H]1OC(=O)/C(C)=C/[C@H](C)[C@@H](O[C@@H]2O[C@H](C)C[C@H](N(C)C)[C@H]2O)[C@@](C)(OC)C[C@@H](C)C(=O)[C@H](C)[C@H]2N(NC/C=C/c3ccc([N+](=O)[O-])cc3)C(=O)O[C@]12C	Streptococcus pneumoniae	1 µg/mL
CC[C@H]1OC(=O)/C(C)=C/[C@H](C)[C@@H](O[C@@H]2O[C@H](C)C[C@H](N(C)C)[C@H]2O)[C@@](C)(OC)C[C@@H](C)C(=O)[C@H](C)[C@H]2N(NCc3ccc(N)cc3)C(=O)O[C@]12C	Streptococcus pneumoniae	1 µg/mL
CC[C@H]1OC(=O)/C(C)=C/[C@H](C)[C@@H](O[C@@H]2O[C@H](C)C[C@H](N(C)C)[C@H]2O)[C@@](C)(OC)C[C@@H](C)C(=O)[C@H](C)[C@H]2N(NCCCc3ccc(Cl)cc3Cl)C(=O)O[C@]12C	Streptococcus pneumoniae	2 µg/mL
CC[C@H]1OC(=O)/C(C)=C/[C@H](C)[C@@H](O[C@@H]2O[C@H](C)C[C@H](N(C)C)[C@H]2O)[C@@](C)(OC)C[C@@H](C)C(=O)[C@H](C)[C@H]2N(NCCCc3ccc(NC(C)=O)cc3)C(=O)O[C@]12C	Streptococcus pneumoniae	2 µg/mL
CC[C@H]1OC(=O)/C(C)=C/[C@H](C)[C@@H](O[C@@H]2O[C@H](C)C[C@H](N(C)C)[C@H]2O)[C@@](C)(OC)C[C@@H](C)C(=O)[C@H](C)[C@H]2N(NCCc3ccccc3)C(=O)O[C@]12C	Streptococcus pneumoniae	2 µg/mL

Which measured MIC value corresponds to CC[C@H]1OC(=O)/C(C)=C/[C@H](C)[C@@H](O[C@@H]2O[C@H](C)C[C@H](N(C)C)[C@H]2O)[C@@](C)(OC)C[C@@H](C)C(=O)[C@H](C)[C@H]2N(NCCCc3cccc(Cl)c3)C(=O)O[C@]12C ?
2 µg/mL

Which measured MIC value corresponds to CC[C@H]1OC(=O)/C(C)=C/[C@H](C)[C@@H](O[C@@H]2O[C@H](C)C[C@H](N(C)C)[C@H]2O)[C@@](C)(OC)C[C@@H](C)C(=O)[C@@H](C)[C@H]2N(NC/C=C/c3ccccc3)C(=O)O[C@]12C ?
4 µg/mL

Which measured MIC value corresponds to CC[C@H]1OC(=O)/C(C)=C/[C@H](C)[C@@H](O[C@@H]2O[C@H](C)C[C@H](N(C)C)[C@H]2O)[C@@](C)(OC)C[C@@H](C)C(=O)[C@H](C)[C@H]2N(NCCCn3nc4ccccc4n3)C(=O)O[C@]12C ?
0.5 µg/mL
